Where do the numbers come from? From patent US20230053342A1.

System: human tumor cells MCF-7
Test: Cell proliferation assay (CellTiter Glo), MCF-7
Type: cell-based
Conditions: MCF7, MCF-7 cells incubated for 120 h, read-out: IC50(μM) of compound on MCF cell
outcome measure: IC50 (µM)

compound: CC(C)C1C(=O)N(C)C(=O)N1c1cn2c(n1)-c1ccc(N3CCC[C@H]3C(N)=O)cc1OCC2 (some centres unmarked)
IC50, µM: 0.176
--
compound: NC(=O)[C@@H]1CCCN1c1ccc2c(c1)OCCn1cc(N3C(=O)CC[C@@H]3CO)nc1-2 [Control compound 2, reference compound]
IC50, µM: 0.549
--
compound: CC(C)[C@H]1C(=O)N(C2CC2)C(=O)N1c1cn2c(n1)-c1ccc(N3CCC[C@H]3C(N)=O)cc1OCC2
IC50, µM: 0.047
--
compound: CC(C)(c1cc(-c2cn3c(n2)-c2ccc(N4CCC[C@H]4C(N)=O)cc2OCC3)ccn1)C(F)(F)F [Control compound 3, reference compound]
IC50, µM: 0.519
--
compound: CC(C)C1C(=O)N(C(C)C)C(=O)N1c1cn2c(n1)-c1ccc(N3CCC[C@H]3C(N)=O)cc1OCC2 (some centres unmarked)
IC50, µM: 0.074

a. CC(C)C1C(=O)N(C2CC2)C(=O)N1c1cn2c(n1)-c1ccc(N3CCC[C@H]3C(N)=O)cc1OCC2 (some centres unmarked)
b. CC(C)[C@@H]1C(=O)N(C2CC2)C(=O)N1c1cn2c(n1)-c1ccc(N3CCC[C@H]3C(N)=O)cc1OCC2
Qu. Identify the item whose IC50 is the smaller number: a or b Field: selected label. Fill in the label of the entry you choose.
Ans. a

P. C[C@@H]1COC(=O)N1c1cn2c(n1)-c1ccc(N3CCC[C@H]3C(N)=O)cc1OCC2 [Control compound 1, reference compound]
Q. CC(C)C1C(=O)N(c2ccccc2)C(=O)N1c1cn2c(n1)-c1ccc(N3CCC[C@H]3C(N)=O)cc1OCC2 (some centres unmarked)
Qu. Identify the item whose IC50 is the smaller number: P or Q Field: selected label. Fill in the label of the entry you choose.
Ans. Q
